MIC values for the molecules below.
Tested on: M. Hyorhinis HH
Assay remarks: Minimal inhibitory concentration vs mycoplasma in contaminated LLC-MK2 tissue culture
Assay type: cell-based, Mycoplasma hyorhinis
Experimental parameters: Mesomycoplasma hyorhinis, LLC-MK2 tissue culture contaminated with M. Hyorhinis HH (isolate from human heart tissue); combinations contain equal amounts of each antibiotic; read-out: Minimal inhibitory concentration
Where a name gives a salt, the structure may show the parent alone.

Molecule: CO[C@H]1C[C@H](O[C@H]2[C@H](C)[C@@H](O[C@@H]3O[C@H](C)C[C@H](N(C)C)[C@H]3O)[C@@H](C)C[C@@]3(CO3)C(=O)[C@H](C)[C@@H](O)[C@@H](C)[C@@H](C)OC(=O)[C@@H]2C)O[C@@H](C)[C@@H]1O
MIC [µg/mL]: 400
--
Molecule: CO[C@@H]1[C@@H](O[C@@H]2O[C@H](C)[C@@H](O[C@H]3C[C@@](C)(O)[C@@H](OC(=O)CC(C)C)[C@H](C)O3)[C@H](N(C)C)[C@H]2O)[C@@H](CC=O)C[C@@H](C)[C@@H](O)/C=C/C=C/C[C@@H](C)OC(=O)C[C@H]1O
MIC [µg/mL]: 400
--
Molecule: NCC1OC(OC2C(N)CC(N)C(OC3OC(CO)C(O)C(N)C3O)C2O)C(N)CC1O (stereo not shown) [Tobramycin sulfate]
MIC [µg/mL]: 200
--
Molecule: CN[C@@H]1[C@@H](O[C@H]2O[C@H](CO)[C@@H](N)[C@H](O)[C@H]2O)OC2C[C@@H](N)[C@@H](O[C@H]3[C@H](O)[C@@H](O)[C@H](N)C[C@@H]3N)OC2[C@@H]1O (stereo partly shown)
MIC [µg/mL]: 600
